# experiment.notes: Inhibition of HIV1 NL4-3 protease K60C mutant
# Parameters: species or system Human immunodeficiency virus 1
Mark YES only for IC50 values smaller than 2 nM; exact matches and larger values are NO.

Worked set:
>>> cat("CC(C)(C)NC(=O)[C@@H]1CN(Cc2cccnc2)CCN1C[C@@H](O)CC(Cc1ccccc1)C(=O)N[C@H]1c2ccccc2C[C@H]1O (single isomer, unassigned)")
"NO"
>>> cat("O=C(N[C@H]1c2ccccc2OC[C@H]1O)[C@H](Cc1ccccc1)C[C@H](O)C(=O)N1COC2(CCCC2)[C@H]1C(=O)NCc1c(Cl)cccc1Cl")
"YES"
>>> cat("Cc1noc(C)c1CNC(=O)[C@H]1N(C(=O)[C@@H](O)C[C@@H](Cc2ccccc2)C(=O)N[C@H]2c3ccccc3OC[C@H]2O)COC12CCCC2")
"YES"
>>> cat("Cc1nsc(C)c1CNC(=O)[C@H]1N(C(=O)[C@@H](O)C[C@@H](Cc2ccccc2)C(=O)N[C@H]2c3ccccc3OC[C@H]2O)COC12CCCC2")
"YES"
>>> cat("Cc1cccc(C)c1CNC(=O)[C@H]1N(C(=O)[C@@H](O)C[C@@H](Cc2ccccc2)C(=O)N[C@H]2c3ccccc3OC[C@H]2O)CCC1(C)C")
"YES"

Kindly review the next compound as well.
Q) Quick check: does Cc1cccc(C)c1CNC(=O)[C@H]1N(C(=O)[C@@H](O)C[C@@H](Cc2ccccc2)C(=O)N[C@H]2c3ccccc3OC[C@H]2O)COC1(C)C have IC50 under 2 nM?
A) NO

====

Measured pIC50 (Protease (Human immunodeficiency virus 1, UniProt Q9YQ12))
Numbers only, as −log10 of the molar value.

Study these solved cases before continuing.
>>> measured_value("Cc1cccc(C)c1CNC(=O)[C@@H]1CCCN1C(=O)[C@@H](O)C[C@@H](Cc1ccccc1)C(=O)N[C@H]1c2ccccc2OC[C@H]1O")
7.85
>>> measured_value("Cc1noc(C)c1CNC(=O)[C@H]1N(C(=O)[C@@H](O)C[C@@H](Cc2ccccc2)C(=O)N[C@H]2c3ccccc3OC[C@H]2O)COC12CCCC2")
9.70

Now for another entry.
Q) Endpoint output: pIC50 of Cc1cccc(C)c1CNC(=O)[C@@H]1CCN1C(=O)[C@@H](O)C[C@@H](Cc1ccccc1)C(=O)N[C@H]1c2ccccc2OC[C@H]1O . Value?
A) 7.05

====

Please provide measured IC95 for the entries that follow.
# Test system: Human immunodeficiency virus 1
# experiment.notes: Antiviral activity against HIV1 NL4-3 in MT4 cells by viral spread assay
# Format: functional
# experimental.context: Human immunodeficiency virus 1, NL4-3, MT4; read-out: CIC95
Numbers only, in nM.

>>> measured_value("Cc1cccc(C)c1CNC(=O)[C@@H]1CCCN1C(=O)[C@@H](O)C[C@@H](Cc1ccccc1)C(=O)N[C@H]1c2ccccc2OC[C@H]1O")
1000

For each listed entry, give its IC95.
1. Cc1cccc(C)c1CNC(=O)[C@H]1N(C(=O)[C@@H](O)C[C@@H](Cc2ccccc2)C(=O)N[C@H]2c3ccccc3OC[C@H]2O)COC12CCCC2
2. Cc1noc(C)c1CNC(=O)[C@H]1N(C(=O)[C@@H](O)C[C@@H](Cc2ccccc2)C(=O)N[C@H]2c3ccccc3OC[C@H]2O)COC12CCCC2

A)
[8, 250]

Could I get IC95 for every one of these entries?
1. O=C(N[C@H]1c2ccccc2OC[C@H]1O)[C@H](Cc1ccccc1)C[C@H](O)C(=O)N1COC2(CCCC2)[C@H]1C(=O)NCc1c(Cl)cccc1Cl
2. CC(C)(C)NC(=O)[C@@H]1CN(Cc2cccnc2)CCN1C[C@@H](O)CC(Cc1ccccc1)C(=O)N[C@H]1c2ccccc2C[C@H]1O (single isomer, unassigned)
3. Cc1cccc(C)c1CNC(=O)[C@H]1N(C(=O)[C@@H](O)C[C@@H](Cc2ccccc2)C(=O)N[C@H]2c3ccccc3OC[C@H]2O)COC1(C)C
4. Cc1cccc(C)c1CNC(=O)[C@@H]1CCN1C(=O)[C@@H](O)C[C@@H](Cc1ccccc1)C(=O)N[C@H]1c2ccccc2OC[C@H]1O

A)
[62.5, 45, 15, 1000]

For each listed entry, give its IC95.
1. Cc1nsc(C)c1CNC(=O)[C@H]1N(C(=O)[C@@H](O)C[C@@H](Cc2ccccc2)C(=O)N[C@H]2c3ccccc3OC[C@H]2O)COC12CCCC2
2. Cc1cccc(C)c1CNC(=O)[C@H]1N(C(=O)[C@@H](O)C[C@@H](Cc2ccccc2)C(=O)N[C@H]2c3ccccc3OC[C@H]2O)CCC1(C)C
3. Cc1cccc(C)c1CNC(=O)[C@@H]1CCCCN1C(=O)[C@@H](O)C[C@@H](Cc1ccccc1)C(=O)N[C@H]1c2ccccc2OC[C@H]1O
4. Cc1cccc(C)c1CNC(=O)[C@H]1N(C(=O)[C@@H](O)C[C@@H](Cc2ccccc2)C(=O)N[C@H]2c3ccccc3OC[C@H]2O)CSC1(C)C

A)
1. 125
2. 15
3. 1000
4. 15
